Target: RSV postfusion F (postF), F deltaFP (respiratory syncytial virus, UniProt P03420 26-513)
Assay: BLI, IgG on sensor, 100 nM antigen
For each of the binders below, state its pKd.
One number for each entry, as −log10 of the molar value.

Worked cases, pKd given:
ADI-41373 (antibody, V domains shown, IgG1; also called Ab 670) VH: QVTLKESGGGLVKPGGSLRLSCAASGFTFSDYFMTWIRQAPGKGLEWVSYISSNSGYTKYAEDVKGRFSISRDNAKKTLFLQLNSLSAEDTAVYYCARVEFSSGDVPSLFDLWGQGTLVTVSS VL: QSVLTQPPSVSGAPGQRVTISCTGSSSNIGAGYHVHWYQQLPGTAPKVLIHGNNNRPSGVPDRFSGSRSGTSASLAITGLQAEDEADYYCQSYDFSLSGWVFGGGTKLTVL
8.93
ADI-41369 (antibody, V domains shown, IgG1; also called Ab 666) VH: EVQLVQSGGGVVQPGRSLRLSCAASGFTFSSYGMHWVRQAPGKGLEWVAVISHDGNNKYYGDSVKGRFTISRDNSKNTLHLQMNSLRGDDTAVYYCGKDPLKGDCSGGSCYQRIDYWGQGTLVTVSS VL: NFMLTQPHSVSESPGKTVTISCTGSSGRIASNYVQWYQQRPGSAPATVIYDDNQRPSGVPDRFSGSIDSSSNSASLTISGLKTEDEADYYCQSYDRSNHVIFGGGTKLTVL
9.51
ADI-41425 (antibody, V domains shown, IgG1) VH: EVQLLESGPAVVKPTQTLTLTCTVSGLSLSSPRMSVSWIRQPPGKGLEWLARIDWDGDKYYGTSLKTRLSISKDTSKNQVVLTMTNMDPVDTGTYYCAQTSIYASNAYYLARLDPWGQGMLVTVSS VL: EIVMTQSPSLLSASVGDRVTITCRASQNIATYLNWYQQKPGKAPRLLIYAASNLQSGVPSGFSGSGSGTVFTLTISSLQPEDFATYFCQQSYETSLTFGGGTKVEIK
9.30
ADI-41448 (antibody, V domains shown, IgG1) VH: TVQLVESGAEVKSPGSSVRVSCQASGGSSNSYAISWVRQAPGQGLEWMGMISPLFGTTRFSQRFQGRVTITADKSTSTAYMELSSLNSEDTALYYCARGRFDFWSGPTRFYYTMDVWGQGTMVTVSS VL: QSVLIQPASVSGSPGQSITISCSGTSSDIGGYNYVSWYQQHPGKAPKLLISDVTDRPSGISDRFSGSKSGTSASLTISGLQADDEADYYCTSYTTSSTWVFGGGTKLTVL
9.37

Looking for the measured pKd of ADI-41414 (antibody, V domains shown, IgG1) VH: EVQLLESGGGLAQPGRSLKVSCAASGVTVTSTYMGWVRQAPGKGLQWVSVIYSDGTTYYADSVKGRFTISRDHYKNTLYLQMNSLRAEDTALYYCARGNRRTDFGYWGQGTLVTVSS VL: EIVMTQSPSTLSASVGDRVTITCRASQTISNWLAWYQQKPGKAPKLLIYQASTLESGVPSRFSGSGSGTEFTLTISSLQPDDFATYYCQQYNTYYTFGPGTKVEIK , can you help? 8.96
